Data credit: patent US20110237659A1

# target_or_test_system: Human TRPV3 (Homo sapiens)
# Construct: expressed in transfected cells; host or cells: CHO cells
# Sequence (Q8NET8 1-790): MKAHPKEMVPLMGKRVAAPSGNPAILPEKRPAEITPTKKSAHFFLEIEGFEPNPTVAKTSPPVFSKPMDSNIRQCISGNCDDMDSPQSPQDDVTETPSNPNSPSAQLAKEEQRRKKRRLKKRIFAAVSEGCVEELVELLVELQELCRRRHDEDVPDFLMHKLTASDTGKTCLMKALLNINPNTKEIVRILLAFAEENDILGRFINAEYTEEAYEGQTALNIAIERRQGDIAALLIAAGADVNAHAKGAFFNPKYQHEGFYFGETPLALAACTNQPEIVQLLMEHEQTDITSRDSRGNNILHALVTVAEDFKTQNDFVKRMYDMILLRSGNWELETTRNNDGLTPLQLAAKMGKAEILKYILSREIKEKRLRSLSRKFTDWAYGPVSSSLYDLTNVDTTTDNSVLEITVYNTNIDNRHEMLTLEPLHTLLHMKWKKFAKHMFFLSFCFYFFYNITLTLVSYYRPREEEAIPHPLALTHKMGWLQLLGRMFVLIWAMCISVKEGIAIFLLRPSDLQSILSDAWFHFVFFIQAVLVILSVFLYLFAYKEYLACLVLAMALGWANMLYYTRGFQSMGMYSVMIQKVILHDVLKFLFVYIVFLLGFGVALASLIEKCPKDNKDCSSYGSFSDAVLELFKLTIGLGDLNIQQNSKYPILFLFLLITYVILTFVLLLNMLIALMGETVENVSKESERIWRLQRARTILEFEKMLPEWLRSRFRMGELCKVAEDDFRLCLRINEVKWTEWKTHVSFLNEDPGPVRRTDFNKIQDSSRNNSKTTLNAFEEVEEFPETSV
# method_summary: 45Calcium uptake assay: inhibition of 2-APB induced cellular uptake of radioactive calcium in human TRPV3 expressing CHO cells
# Type: cell-based
# experimental_parameters: 1.0 μM test compound, 2-APB 500 μM, read-out: Percentage inhibition at 1.0 μM
Class fulfilled: inhibition at 1 µM at least 70%. Class not fulfilled: inhibition at 1 µM below 70%.

{"columns": ["compound", "assigned_label"],
 "data": [
  ["COc1cccc(/C=C/c2oc3ccc(F)cc3c(=O)c2-c2ccc(C#N)cc2)c1OC1CCCC1 [Example 16]", "not fulfilled"],
  ["COc1cccc(/C=C/c2oc3cc(F)ccc3c(=O)c2-c2ccc(C#N)cc2)c1OCC1CC1 [Example 10]", "fulfilled"],
  ["COc1cccc(/C=C/c2oc3ccc(F)cc3c(=O)c2-c2ccc(C#N)cc2)c1OCC1CC1 [Example 15]", "fulfilled"]
]}

## Task Given the entry COc1cccc(/C=C/c2oc3cc(F)ccc3c(=O)c2-c2ccc(C#N)cc2)c1OCC(C)(C)C [Example 12] , answer whether its inhibition at 1 µM meets or surpasses 70%.
## Result fulfilled

## Task Quick check, inhibition at 1 µM >= 70%? COc1cccc(/C=C/c2oc3cc(F)c(F)cc3c(=O)c2-c2ccc(C#N)cc2)c1OC1CCCC1 [Example 23]
## Result fulfilled

## Task Identify whether the reported inhibition at 1 µM of the following compound is 70% or greater: COc1cccc(/C=C/c2oc3ccc(Cl)cc3c(=O)c2-c2ccc(C#N)cc2)c1OCC1CC1 [Example 21]
## Result fulfilled
